System: ZEAMA Sileno
measurementDescription: Tank-mix; post-emergence, crop damage with and without safener
Type: in vivo, maize
reportedConditions: HER dose 2 g a.i./ha, no safener; Final assessment; 0% = no injury, 100% = complete kill
Kindly state HER effect for each of the entries shown.
Give bare numbers, in %.

Please report HER effect for every entry that follows.
1. C=CC1(C(=O)NC2COC(C(=O)OC)C2)CC(c2cc(F)cc(F)c2)=NO1 (mixture of isomers) [Example 1.68]
2. C=CC1(C(=O)NC2COC(C(=O)OCCOC)C2)CC(c2cc(F)cc(F)c2)=NO1 (mixture of isomers) [Example 1.66]
3. COC(=O)C1=CC(NC(=O)C2(C)CC(c3cc(F)cc(F)c3)=NO2)CC1 (stereo not drawn) [Example 1.63]
4. CC1(C(=O)NC2C=CC(C(=O)O)C2)CC(c2cc(F)cc(F)c2)=NO1 (stereo not drawn) [Example 1.36]
5. CCOC(=O)C1C=CC(NC(=O)C2(CF)CC(c3cc(F)cc(F)c3)=NO2)C1 (stereo not drawn) [Example 1.17]
6. C=CC1(C(=O)NC2COC(C(=O)OC)C2)CC(c2cc(F)cc(F)c2)=NO1 (stereo not drawn) [Example 1.70]

A.
1. 60
2. 33
3. 23
4. 40
5. 45
6. 88
